Biological target: α1 receptor
Assay: α1 receptor binding
Conditions: isolated frontal cortex preparation of male Wistar rats; ligand 3H-prazosine 0.3 nM; non-specific binding prazosine 1 μM
Measured Endpoint: IC50

Ask: IC50 lookup needed for O=C1Nc2ccc(F)cc2C1CCCCN1CCN(c2cc(Cl)cc3c2OCCO3)CC1 (stereo not shown) , thanks.
Reply: < 0.05 µM

Ask: Report IC50 for O=C1Nc2ccccc2C1CCCCN1CCN(c2ccccn2)CC1 (stereo not shown) please.
Reply: < 0.1 µM

Ask: Could you share which IC50 value was measured for COc1cccc(N2CCN(CCCCC3C(=O)Nc4ccc(F)cc43)CC2)c1 (stereo not shown) ?
Reply: < 0.1 µM

Ask: Consider the compound O=C1Nc2cc(F)ccc2C1CCCCN1CCN(c2ccccn2)CC1 (stereo not shown) and give its measured IC50.
Reply: < 0.1 µM
